# Target system: human Kv1.3 (Homo sapiens, UniProt P22001 1-575)
# Sequence (P22001 whole entry): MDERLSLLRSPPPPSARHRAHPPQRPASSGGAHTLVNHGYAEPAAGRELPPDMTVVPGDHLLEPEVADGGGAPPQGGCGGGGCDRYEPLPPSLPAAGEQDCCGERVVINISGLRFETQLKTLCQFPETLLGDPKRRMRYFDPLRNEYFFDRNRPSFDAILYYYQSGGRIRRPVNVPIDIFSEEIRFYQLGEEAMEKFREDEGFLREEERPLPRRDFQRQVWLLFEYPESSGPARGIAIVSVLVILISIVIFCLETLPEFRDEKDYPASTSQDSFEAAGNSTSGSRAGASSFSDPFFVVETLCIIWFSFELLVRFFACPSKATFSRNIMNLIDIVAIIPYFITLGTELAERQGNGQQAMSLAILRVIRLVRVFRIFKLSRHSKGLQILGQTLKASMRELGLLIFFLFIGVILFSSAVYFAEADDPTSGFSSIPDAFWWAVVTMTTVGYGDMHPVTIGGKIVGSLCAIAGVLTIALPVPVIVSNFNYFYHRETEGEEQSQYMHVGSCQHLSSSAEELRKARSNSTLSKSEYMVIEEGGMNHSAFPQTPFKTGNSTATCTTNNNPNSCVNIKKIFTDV
# Assay name: cell-based or functional assay
Parameter: IC50, CD25 read out, CCR7-CD45RA- T cells stimulated with anti-CD3 (nM)

binder="A019400013 (VHH, Bivalent Nanobody construct (family 12 - family 12), without Alb11; also called A0194009G09-35GS-A0194009G09) EVQLVESGGGLVQAGGSLGLSCSASGLLFSRNSAGWYRQAPGKQREFVARIRMGGSINYADTVKGRFTISRDNAKNTVYLQMNSLKPEDTAVYYCSSWRTGFYEYWGQGTLVTVSSGGGGSGGGGSGGGGSGGGGSGGGGSGGGGSGGGGSEVQLVESGGGLVQAGGSLGLSCSASGLLFSRNSAGWYRQAPGKQREFVARIRMGGSINYADTVKGRFTISRDNAKNTVYLQMNSLKPEDTAVYYCSSWRTGFYEYWGQGTLVTVSS" value_observed=0.12
binder="A019400012 (other) EVQLVESGGGLVQAGGSLGLSCSASGLLFSRNSAGWYRQAPGKQREFVARIRMGGSINYADTVKGRFTISRDNAKNTVYLQMNSLKPEDTAVYYCSSWRTGFYEYWGQGTLVTVSSGGGGSGGGGSGGGGSGGGGSGGGGSGGGGSGGGGSEVQLVESGGGLVQAGGSLSLSCTASGGTFRNFGMGWFRQAQGKEREFVAAISRTGGHTYYQDSVKGRFTISKDNAKNILSLQMNSLKPEDTAVYYCAARFRFGDGTYYYQRAFYDFWGQGTLVTVSS" value_observed=0.31
binder="A019400032 (VHH) DVQLVESGGGLVQAGGSLGLSCSASGLLFSRNSAGWYRQAPGKRREFVARIRMGGSINYADSVKGRFTVSRDNAKNMMYLQMNDLKPEDTAVYFCSGWREGFYEYWGQGTLVTVSSGGGGSGGGGSGGGGSGGGGSGGGGSGGGGSGGGGSEVQLVESGGGLVQAGGSLGLSCSASGLLFSRNSAGWYRQAPGKRREFVARIRMGGSINYADSVKGRFTVSRDNAKNMMYLQMNDLKPEDTAVYFCSGWREGFYEYWGQGTLVTVSS" value_observed=0.12
binder="A019400014 (other, Biparatopic Nanobody construct (family 1 - family 12); also called A019400003-35GS-A0194009G09; A019400011) EVQLVESGGGLVQAGGSLSLSCTASGGTFRNFGMGWFRQAQGKEREFVAAISRTGGHTYYQDSVKGRFTISKDNAKNILSLQMNSLKPEDTAVYYCAARFRFGDGTYYYQRAFYDFWGQGTLVTVSSGGGGSGGGGSGGGGSGGGGSGGGGSGGGGSGGGGSEVQLVESGGGLVQAGGSLGLSCSASGLLFSRNSAGWYRQAPGKQREFVARIRMGGSINYADTVKGRFTISRDNAKNTVYLQMNSLKPEDTAVYYCSSWRTGFYEYWGQGTLVTVSS" value_observed=0.11
